Where do these numbers come from? They come from patent US20040067965A1.

experiment: in vitro; format: cell-based; settings: human
Hi there, I'd appreciate the recorded CC50 for every entry that follows.

Per the records, this compound ( Nc1nc(O)c2ncn(COC(CO)CO)c2n1 [Ganciclovir] ) has CC50 equal to > 100 µM

Per the records, this compound ( Nc1nc2[nH]cc(CCc3ccc(C(=O)N[C@@H](CCC(=O)[O-])C(=O)[O-])cc3)c2c(=O)[nH]1.[Na+].[Na+] [ALIMTA] ) has CC50 equal to > 100 µM
